System: HS 578T breast
Assay: NCI-60 one-dose screen, 48 h (100 = growth as untreated, 0 = no growth, -100 = all killed)
Settings: 10 µM unless noted
Description: Growth inhibition of the HS 578T human tumor cell line is measured as a screen for anti-cancer activity. Cells are grown in 96 well plates and exposed to the test compound for 48 hours. Compounds are tested at a single concentration, which is 10^-5 M for most compounds. The reported endpoint is percent growth (GI% or GIPRCNT), where numbers from 0 - 100% represent growth inhibition, and numbers from -100% - 0 represent cell death. For example, a value of 40 represents 60% growth inhibition. […]
About 83,000 compounds went through this panel and 20% of them were active in at least one assay; those are over-represented in the sample as a whole.
Some molecules, each annotated with its measured growth.
The reply should be a number in %, with the unit left off.

* Cn1cc(C(=O)c2nc(-c3c[nH]c4ccc(Br)cc34)no2)c2cc(Br)ccc21 | 80.3

Alright, here's another molecule for you.
// growth lookup, molecule = N=C(N)SCc1cccc2c(CSC(=N)N)cccc12 , result: 100
